B1: FAM189A2 (parent)
chain: GSEAAVIPLDLGCTQVTQDGDIPN

variants of: B1; assay: protein stability index of a GFP-peptide fusion (GPS, HEK-293T) (PSI 1-6); higher = more stable; conditions: c terminus: a fixed tail appended;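 note: lentivirally expressed fusions sorted by FACS into six bins by GFP to DsRed ratio, PSI derived from sequencing read proportions per bin multiplied by bin number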
VALUE_KIND: protein stability index
Give a plain numeric answer without units written out.

P23I    5.16

So what does the record say about protein stability index for `A4R` ?
5.4
